# measuredOn: human CCR6 (Homo sapiens)
# Construct: expressed in transfected cells; host or cells: HEK-293
# Sequence (P51684 whole entry): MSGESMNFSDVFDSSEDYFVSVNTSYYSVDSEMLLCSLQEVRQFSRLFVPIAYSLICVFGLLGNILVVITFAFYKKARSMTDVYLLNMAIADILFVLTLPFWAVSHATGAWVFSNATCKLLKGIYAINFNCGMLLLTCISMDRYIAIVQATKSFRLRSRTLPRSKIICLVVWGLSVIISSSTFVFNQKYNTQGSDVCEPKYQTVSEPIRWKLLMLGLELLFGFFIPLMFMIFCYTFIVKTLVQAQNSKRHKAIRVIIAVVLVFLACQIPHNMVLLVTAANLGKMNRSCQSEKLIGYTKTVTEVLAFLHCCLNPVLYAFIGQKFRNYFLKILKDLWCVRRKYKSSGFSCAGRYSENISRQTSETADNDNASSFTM
# method: FLIPR assay (inhibition of CCL20-induced calcium signal)
# Assay type: cell-based
# conditionDescription: HEK-293 cells expressing human CCR6; mean values where determined several times; read-out: FLIPR IC50
assayMetric: IC50 (nM)

Recorded IC50, per entry:
In [3]: df
Out[3]:
                                   compound                 measuredon  recordednumber
0  CC(C)c1ccc([C@](O)(c2cncc(-c3noc(C4CCN(C(=O)C5CC5)CC4)n3)c2)C2(C)CN(C)C2)cc1  human CCR6 (Homo sapiens)              39
1  CC(C)c1ccc([C@](O)(c2cncc(C3CCC(C)(O)CC3)c2)C2(C)CN(C)C2)cc1 (stereo partly shown)  human CCR6 (Homo sapiens)             168

[A] Cc1nc(C(O)CCc2cncc([C@@](O)(c3ccc(C(C)C)cc3)C3(C)CN(C)C3)c2)cs1 (stereo partly shown)
[B] COC(=O)c1ccccc1CCc1cncc([C@@](O)(c2ccc(C(C)C)cc2)C2(C)CN(C)C2)c1
Req: Pick one: A or B . Which one has the lower reported IC50? Bench note: the answer is the label of the chosen record.
Resp: B
(B: 48.8 nM, A: 223 nM)
